Molecular target: ALK (Homo sapiens, UniProt Q9UM73)
Sequence (Q9UM73 19-1620, species assumed): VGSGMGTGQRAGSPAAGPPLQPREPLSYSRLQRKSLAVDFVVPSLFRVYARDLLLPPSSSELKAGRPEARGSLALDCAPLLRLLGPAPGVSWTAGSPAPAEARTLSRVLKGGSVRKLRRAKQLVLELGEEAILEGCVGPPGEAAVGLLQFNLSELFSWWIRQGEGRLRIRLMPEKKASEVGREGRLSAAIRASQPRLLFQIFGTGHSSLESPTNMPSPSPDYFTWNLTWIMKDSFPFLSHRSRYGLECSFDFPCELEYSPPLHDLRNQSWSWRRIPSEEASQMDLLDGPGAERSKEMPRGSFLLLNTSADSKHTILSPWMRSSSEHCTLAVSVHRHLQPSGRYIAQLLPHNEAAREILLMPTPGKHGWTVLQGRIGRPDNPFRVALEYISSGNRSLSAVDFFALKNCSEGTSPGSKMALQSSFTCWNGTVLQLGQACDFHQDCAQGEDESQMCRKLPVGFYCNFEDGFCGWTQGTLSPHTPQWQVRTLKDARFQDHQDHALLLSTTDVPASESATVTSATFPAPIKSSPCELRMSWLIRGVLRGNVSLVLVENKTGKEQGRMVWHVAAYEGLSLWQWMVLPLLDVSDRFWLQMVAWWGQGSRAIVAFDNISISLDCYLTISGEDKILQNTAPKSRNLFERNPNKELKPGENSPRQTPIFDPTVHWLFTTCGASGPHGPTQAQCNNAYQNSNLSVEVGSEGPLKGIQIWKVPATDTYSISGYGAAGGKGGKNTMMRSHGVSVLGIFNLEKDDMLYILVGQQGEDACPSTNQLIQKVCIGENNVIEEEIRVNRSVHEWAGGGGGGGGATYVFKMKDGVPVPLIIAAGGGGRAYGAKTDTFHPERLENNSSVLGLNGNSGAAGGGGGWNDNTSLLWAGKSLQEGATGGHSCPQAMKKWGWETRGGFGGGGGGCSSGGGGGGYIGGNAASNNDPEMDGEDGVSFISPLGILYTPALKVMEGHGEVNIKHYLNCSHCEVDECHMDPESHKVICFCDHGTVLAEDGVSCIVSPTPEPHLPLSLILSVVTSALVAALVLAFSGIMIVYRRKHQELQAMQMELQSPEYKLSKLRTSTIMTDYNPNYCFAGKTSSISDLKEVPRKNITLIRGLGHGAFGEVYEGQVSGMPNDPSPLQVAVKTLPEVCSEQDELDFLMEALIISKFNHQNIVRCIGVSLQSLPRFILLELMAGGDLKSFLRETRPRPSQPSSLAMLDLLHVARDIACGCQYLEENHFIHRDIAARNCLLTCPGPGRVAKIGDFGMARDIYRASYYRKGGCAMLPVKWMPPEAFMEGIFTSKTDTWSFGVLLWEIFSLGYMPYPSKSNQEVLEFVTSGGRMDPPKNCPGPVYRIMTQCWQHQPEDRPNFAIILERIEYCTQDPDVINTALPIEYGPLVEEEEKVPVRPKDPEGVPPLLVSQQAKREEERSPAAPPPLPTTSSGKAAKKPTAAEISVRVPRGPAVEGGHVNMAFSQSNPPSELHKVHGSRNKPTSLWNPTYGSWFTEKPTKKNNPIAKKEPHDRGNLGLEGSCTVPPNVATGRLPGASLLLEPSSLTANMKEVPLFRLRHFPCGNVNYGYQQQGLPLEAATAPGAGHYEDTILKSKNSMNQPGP
pIC50: −log10 of the molar value.

# COMPOUND, pIC50
data = [
    ("CNC(=O)c1ccccc1Nc1nc(N/N=C/c2ccc(F)cc2)ncc1Cl [14f]", 6.55),
]

###

MEASURED_ENDPOINT: melting point

# COMPOUND, MEASURED_ENDPOINT, RESULT_VALUE
rows = [
    ("CNC(=O)c1ccccc1Nc1nc(N/N=C/c2ccccn2)ncc1Cl [14s]", "melting point", "217.1 to 218.2 °C"),
    ("CNC(=O)c1ccccc1Nc1nc(N/N=C/c2ccc(OC)c(F)c2)ncc1Cl [14q]", "melting point", "234.1 to 235.7 °C"),
    ("CNC(=O)c1ccccc1Nc1nc(N/N=C/c2ccc(F)cc2)ncc1Cl [14f]", "melting point", "176.1 to 177.8 °C"),
    ("CNC(=O)c1ccccc1Nc1nc(N/N=C/c2cccnc2)ncc1Cl [14t]", "melting point", "217.1 to 218.1 °C"),
    ("CNC(=O)c1ccccc1Nc1nc(N/N=C/c2ccc(OC)cc2OC)ncc1Cl [14n]", "melting point", "213.1 to 214.7 °C"),
    ("CNC(=O)c1ccccc1Nc1nc(N/N=C/c2ccc(C#N)cc2)ncc1Cl [14j]", "melting point", "200.7 to 202.1 °C"),
]
